Assay: protein stability index of a GFP-peptide fusion (GPS, HEK-293T) (PSI 1-6); higher = more stable;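 further: 24-mer peptide tiles fused after GFP, lentivirally expressed, FACS-sorted into six equal bins by GFP/DsRed ratio, decoded by Illumina sequencing, PSI is the read-weighted mean bin number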
Conditions: treatment: MLN4924 1 uM, 8 h; c terminus: a fixed tail appended
Label rule, in plain words: protein stability index of 4 and up is criterion met, under 4 is criterion not met.

# example entries with known answers
{"Sequence chain": "PSFLSQTGHGVSRGPSPVVLGSQD [FCHO1]", "Label value": "criterion met"}
{"Sequence chain": "FLTILPEELQSWVRGHHPKSGEEA [ZNF232]", "Label value": "criterion not met"}
{"Sequence chain": "EKLKVAPPNADLEQGFQEGVPNAS [MFF]", "Label value": "criterion met"}
{"Sequence chain": "RQEAIYEMSRGEQDLIEDLKLARK [NET1]", "Label value": "criterion met"}
{"Sequence chain": "MNYMPGTASLIEDIDKKHLVLLRD [LSM1]", "Label value": "criterion not met"}
{"Sequence chain": "AFLKLAKQRSVCTWGKNKPGIGAV [FAN1]", "Label value": "criterion not met"}

Reported protein stability index at or above 4? DAGGIPRTAQSEETRVWHRRDGKW [CAMK2A]
criterion met

Reported protein stability index at or above 4? FDDYSATLPLTLIVILENIAVAWI [SLC6A17]
criterion not met

Reported protein stability index at or above 4? VADGLCCVLTTPCLTQSTAAPAVR [SLA]
criterion not met

Reported protein stability index at or above 4? PRTSEAQARKALFEKWEQETAAGK [SMTNL2]
criterion met

Reported protein stability index at or above 4? ALKKRSGKKDKHSQSPRAAGPREG [PBXIP1]
criterion met

Reported protein stability index at or above 4? LANRLCLPHLVALTEQYTVTGLME [RHOBTB2]
criterion not met

Reported protein stability index at or above 4? FGNRIKVLRSRIRFIHLVTGCVLG [POMT2]
criterion not met
